Provenance of the data: patent US10266526B2

- SUBJECT_OF_TEST: SMYD3 (Homo sapiens (Human), UniProt Q9H7B4)
- Sequence (Q9H7B4 whole entry): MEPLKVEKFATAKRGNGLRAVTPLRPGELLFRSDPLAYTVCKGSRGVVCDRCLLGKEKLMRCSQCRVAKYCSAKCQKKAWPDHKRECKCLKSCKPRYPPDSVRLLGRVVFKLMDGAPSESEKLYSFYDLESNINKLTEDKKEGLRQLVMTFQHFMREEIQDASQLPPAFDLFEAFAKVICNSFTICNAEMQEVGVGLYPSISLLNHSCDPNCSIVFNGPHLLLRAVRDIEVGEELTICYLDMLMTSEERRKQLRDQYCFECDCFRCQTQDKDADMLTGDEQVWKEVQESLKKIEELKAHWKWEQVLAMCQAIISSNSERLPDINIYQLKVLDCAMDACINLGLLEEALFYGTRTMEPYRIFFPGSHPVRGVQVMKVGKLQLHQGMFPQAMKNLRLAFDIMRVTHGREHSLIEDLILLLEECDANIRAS
- EXPERIMENT_NOTES: SMYD3 biochemical assay (SMYD3 enzyme assay on MEKK2 protein substrate, 3H-SAM scintillation proximity assay)
- CONDITIONS: read-out: SMYD3 Biochem IC50
pIC50: −log10 of the molar value.
RECORDED_ENDPOINT: pIC50

> print(dat)
                                    compound                           subject.of.test  test.result
 1  CC(NC(=O)Cc1cc(F)cc(F)c1)C1CCN(C(=O)[C@H](C)N)CC1 (stereo partly shown)  SMYD3 (Homo sapiens (Human), UniProt Q9H7B4)         4.15
 2  CC(NC(=O)c1ccc(Cl)cc1C(F)(F)F)C1CCN(C(=O)[C@H](C)N)CC1 (stereo partly shown)  SMYD3 (Homo sapiens (Human), UniProt Q9H7B4)       < 4.00
 3  CC(NC(=O)c1ccc2nc[nH]c2c1)C1CCN(C(=O)[C@H](C)N)CC1 (stereo partly shown)  SMYD3 (Homo sapiens (Human), UniProt Q9H7B4)       < 4.00
 4  NCCC(=O)NC1CCC(NC(=O)c2ncc[nH]2)CC1 (stereo not shown)  SMYD3 (Homo sapiens (Human), UniProt Q9H7B4)       < 4.30
 5  CC(NC(=O)c1ccncc1F)C1CCN(C(=O)[C@H](C)N)CC1 (stereo partly shown)  SMYD3 (Homo sapiens (Human), UniProt Q9H7B4)       < 4.00
 6  CC(NC(=O)c1cc(O)c2ccccc2n1)C1CCN(C(=O)[C@H](C)N)CC1 (stereo partly shown)  SMYD3 (Homo sapiens (Human), UniProt Q9H7B4)       < 4.00
 7  CC(NC(=O)c1cc2ccccc2nc1O)C1CCN(C(=O)[C@H](C)N)CC1 (stereo partly shown)  SMYD3 (Homo sapiens (Human), UniProt Q9H7B4)         4.66
 8  CCc1cnnc(C(=O)N[C@H]2C[C@H]3CC[C@@H](C2)N3S(=O)(=O)N2CCC(N)CC2)c1  SMYD3 (Homo sapiens (Human), UniProt Q9H7B4)         7.30
 9  Cc1cccc(Cn2nc(C(C)(C)C)cc2C(=O)N[C@H]2CC[C@H](NC(=O)CCN)CC2)c1  SMYD3 (Homo sapiens (Human), UniProt Q9H7B4)       < 4.00
10  N[C@H]1CC[C@H](NC(=O)c2cccc3[nH]ccc23)CC1  SMYD3 (Homo sapiens (Human), UniProt Q9H7B4)       < 4.00
